target: myeloperoxidase (Homo sapiens (Human), UniProt P05164); assay: MPO Peroxidation Assay (Amplex Red Assay); format: biochemical; conditions: MPO peroxidation activity, 100 mM KPi (pH 7.4), ten minute preincubation; potency ranges defined in nM
Sequence (P05164 49-745): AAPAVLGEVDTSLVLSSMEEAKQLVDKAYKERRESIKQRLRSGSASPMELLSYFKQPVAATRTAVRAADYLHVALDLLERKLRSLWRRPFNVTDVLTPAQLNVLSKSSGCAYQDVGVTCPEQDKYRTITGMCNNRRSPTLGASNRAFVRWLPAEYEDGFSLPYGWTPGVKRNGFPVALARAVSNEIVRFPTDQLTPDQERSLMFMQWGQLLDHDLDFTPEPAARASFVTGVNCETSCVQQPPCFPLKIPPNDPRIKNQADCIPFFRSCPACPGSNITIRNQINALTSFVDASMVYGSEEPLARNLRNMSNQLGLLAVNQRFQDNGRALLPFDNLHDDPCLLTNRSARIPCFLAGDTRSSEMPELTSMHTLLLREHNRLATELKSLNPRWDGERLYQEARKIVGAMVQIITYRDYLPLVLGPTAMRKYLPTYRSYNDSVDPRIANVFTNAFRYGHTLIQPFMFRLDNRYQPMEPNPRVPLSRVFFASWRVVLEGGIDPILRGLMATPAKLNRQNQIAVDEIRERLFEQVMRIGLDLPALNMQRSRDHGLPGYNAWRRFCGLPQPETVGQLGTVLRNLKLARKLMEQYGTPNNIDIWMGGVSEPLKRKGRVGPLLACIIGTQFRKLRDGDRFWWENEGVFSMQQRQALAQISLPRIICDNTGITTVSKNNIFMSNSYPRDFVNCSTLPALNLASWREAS
IC50: recorded values

Compound: Nc1cc(C2CCNCC3(CC3)COc3cccc(c3)Cn3cc2cn3)c2nn[nH]c2n1 (single isomer, unassigned) [Example 21]
Measure: IC50
Meas value: 101 to 999 nM

Problem: Entry Nc1cc(C2CCNCC3(CCCC3)COc3cccc(c3)Cn3cc2cn3)c2nn[nH]c2n1 (stereo not drawn) : reported IC50 = ?
Result: 101 to 999 nM

Problem: Entry Nc1cc(C2CCNCCc3cccc(c3)Oc3cccc(c3)Cn3cc2cn3)c2nn[nH]c2n1 (single isomer, unassigned) [Example 5] : reported IC50 = ?
Result: 1 to 100 nM

Problem: Entry Nc1cc(C2CCNCc3cc(F)cc(c3)OCc3cccc(c3)Cn3cc2cn3)c2nn[nH]c2n1 (stereo not drawn) : reported IC50 = ?
Result: 1 to 100 nM

Problem: Entry NC(=O)CN1CCc2cccc(c2)Oc2cccc(c2)Cn2cc(cn2)C(c2cc(N)nc3[nH]nnc23)CC1 (stereo not drawn) : reported IC50 = ?
Result: 1000 to 10000 nM

Problem: Entry Nc1cc(C2CCNCc3cccc(c3)Oc3cccc(c3)Cn3cc2cn3)c2nn[nH]c2n1 (stereo not drawn) : reported IC50 = ?
Result: 101 to 999 nM

Problem: Entry Nc1cc(C2CCNCC(=O)N(CCc3ccccc3)Cc3cccc(c3)Cn3cc2cn3)c2nn[nH]c2n1 (stereo not drawn) : reported IC50 = ?
Result: 101 to 999 nM

====

biological target: EPX (Homo sapiens (Human)); test: EPX Bromination Assay; conditions: EPX bromination activity, 100 mM KPi (pH 7.4), 3-bromo tyrosine formation
Sequence (P11678 251-715): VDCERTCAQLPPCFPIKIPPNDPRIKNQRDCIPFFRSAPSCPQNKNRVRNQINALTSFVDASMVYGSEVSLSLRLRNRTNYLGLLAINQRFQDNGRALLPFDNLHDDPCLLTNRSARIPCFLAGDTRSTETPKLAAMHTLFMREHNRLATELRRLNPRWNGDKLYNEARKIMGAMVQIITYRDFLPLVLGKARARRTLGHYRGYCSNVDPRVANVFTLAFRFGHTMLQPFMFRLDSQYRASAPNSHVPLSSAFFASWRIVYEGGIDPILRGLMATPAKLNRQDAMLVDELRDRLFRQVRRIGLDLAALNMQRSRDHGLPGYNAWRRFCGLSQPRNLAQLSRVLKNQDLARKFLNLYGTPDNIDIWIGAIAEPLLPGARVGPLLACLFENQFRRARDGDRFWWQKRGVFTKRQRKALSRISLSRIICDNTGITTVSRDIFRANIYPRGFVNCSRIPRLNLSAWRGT
Sequence (P11678 140-250): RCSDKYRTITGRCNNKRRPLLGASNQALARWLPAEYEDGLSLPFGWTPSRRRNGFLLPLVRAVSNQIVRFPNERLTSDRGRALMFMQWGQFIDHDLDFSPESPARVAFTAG
pIC50: −log10 of the molar value.
Measure: pIC50

Molecule: Nc1cc(C2CCNCc3cccc(c3)COc3cccc(c3)Cn3cc2cn3)c2nn[nH]c2n1 (stereo not shown) [Example 2]
Meas value: 6.72

[I] Nc1cc(C2CCNCC3(CC3)COc3cccc(c3)Cn3cc2cn3)c2nn[nH]c2n1 (single isomer, unassigned) [Example 20]
[II] Nc1cc(C2CCNCCc3cccc(c3)Oc3cccc(c3)Cn3cc2cn3)c2nn[nH]c2n1 (single isomer, unassigned) [Example 5]
[III] Nc1cc(C2CCNC3CCC(CC3)COc3cccc(c3)Cn3cc2cn3)c2nn[nH]c2n1 (stereo not shown) [Example 18]
Problem: hey, can you rank those molecules up there by pIC50? biggest number first please Write the labels, ordered according to the request.
Result: II, I, III
(II: 7.43, I: 7.20, III: 6.66)

====

target: myeloperoxidase (Homo sapiens (Human)); assay: MPO Chlorination Assay (APF Assay); type: biochemical; settings: MPO chlorination activity, 100 mM KPi (pH 7.4), 120 mM NaCl, ten minute preincubation; potency ranges defined in nM
Measure: IC50

Answered cases to consult:
Compound: C[C@H]1Cc2cccc(c2)Oc2cccc(c2)Cn2cc(cn2)C(c2cc(N)nc3[nH]nnc23)CCN1 (stereo partly drawn)
Meas value: 1 to 100 nM

Compound: C[C@H]1Oc2cccc(c2)Cn2cc(cn2)C(c2cc(N)nc3[nH]nnc23)CCNCc2cccc1c2 (stereo partly drawn)
Meas value: 1 to 100 nM

Compound: COCCN1CCc2cccc(c2)Oc2cccc(c2)Cn2cc(cn2)C(c2cc(N)nc3[nH]nnc23)CC1 (stereo not drawn)
Meas value: 101 to 999 nM

Compound: Nc1cc([C@@H]2CCN[C@H]3C[C@H](Cc4ccccc4)[C@@H](C3)Oc3cccc(c3)Cn3cc2cn3)c2nn[nH]c2n1
Meas value: 1 to 100 nM

Compound: Nc1cc(C2CCNC34CCC(c5ccccc5)(CC3)[C@H](C4)Oc3cccc(c3)Cn3cc2cn3)c2nn[nH]c2n1 (stereo partly drawn)
Meas value: 1 to 100 nM

# input for lookup
Problem: Entry Nc1cc(C2CCNC3CCC(CC3)COc3cccc(c3)Cn3cc2cn3)c2nn[nH]c2n1 (stereo not drawn) : reported IC50 = ?
Result: 1 to 100 nM

====

biological target: myeloperoxidase (Homo sapiens (Human)); assay: MPO Peroxidation Assay (Amplex Red Assay); assay type: biochemical; settings: MPO peroxidation activity, 100 mM KPi (pH 7.4), ten minute preincubation; potency ranges defined in nM
Measure: IC50

Answered cases to consult:
Compound: Nc1cc([C@@H]2CCN[C@H]3C[C@H](Cc4ccccc4)[C@@H](C3)Oc3cccc(c3)Cn3cc2cn3)c2nn[nH]c2n1
IC50: 1 to 100 nM

Compound: Nc1cc(C2CCNC34CCC(c5ccccc5)(CC3)[C@H](C4)Oc3cccc(c3)CCn3cc2cn3)c2nn[nH]c2n1 (stereo partly drawn)
IC50: 1 to 100 nM

Compound: Nc1cc(C2CCNCc3cccc(c3)COc3cccc(c3)Cn3cc2cn3)c2nn[nH]c2n1 (stereo not drawn)
IC50: 101 to 999 nM

Compound: Nc1cc(C2CCNCc3ccc(F)c(c3)COc3ccc(F)c(c3)Cn3cc2cn3)c2nn[nH]c2n1 (stereo not drawn)
IC50: 101 to 999 nM

Compound: Nc1cc(C2CCNC34CCC(c5ccccc5)(CC3)[C@@H](C4)Oc3cccc(c3)Cn3cc2cn3)c2nn[nH]c2n1 (stereo partly drawn)
IC50: 1000 to 10000 nM

Compound: Nc1cc(C2CCNC3CCC(CC3)COc3cccc(c3)Cn3cc2cn3)c2nn[nH]c2n1 (stereo not drawn)
IC50: 101 to 999 nM

Problem: Please provide the recorded IC50 for Nc1cc(C2CCNCc3ccc(F)c(c3)OCc3cccc(c3)Cn3cc2cn3)c2nn[nH]c2n1 (stereo not drawn) , tested on myeloperoxidase (Homo sapiens (Human)).
Result: 1000 to 10000 nM

Problem: Please provide the recorded IC50 for Nc1cc([C@H]2CCN[C@H]3C[C@H](Cc4ccccc4)[C@@H](C3)Oc3cccc(c3)Cn3cc2cn3)c2nn[nH]c2n1 , tested on myeloperoxidase (Homo sapiens (Human)).
Result: 1 to 100 nM

Problem: Please provide the recorded IC50 for C[C@H]1Cc2cccc(c2)Oc2cccc(c2)Cn2cc(cn2)C(c2cc(N)nc3[nH]nnc23)CCN1 (stereo partly drawn) , tested on myeloperoxidase (Homo sapiens (Human)).
Result: 1 to 100 nM

Problem: Please provide the recorded IC50 for C[C@@H]1Cc2cccc(c2)Oc2cccc(c2)Cn2cc(cn2)C(c2cc(N)nc3[nH]nnc23)CCN1 (stereo partly drawn) , tested on myeloperoxidase (Homo sapiens (Human)).
Result: 101 to 999 nM

====

biological target: myeloperoxidase (Homo sapiens (Human), UniProt P05164); experiment: MPO Chlorination Assay (APF Assay); format: biochemical; conditions: MPO chlorination activity, 100 mM KPi (pH 7.4), 120 mM NaCl, ten minute preincubation; potency ranges defined in nM
IC50: recorded values

Answered cases to consult:
Compound: Nc1cc(C2CCN3C[C@H](Cc4ccccc4)[C@@H](C3)Oc3cccc(c3)Cn3cc2cn3)c2nn[nH]c2n1 (stereo partly shown) [Example 31]
IC50: 1 to 100 nM
//
Compound: Nc1cc(C2CCNC34CCC(c5ccccc5)(CC3)[C@@H](C4)Oc3cccc(c3)Cn3cc2cn3)c2nn[nH]c2n1 (stereo partly shown) [Example 28]
IC50: 1 to 100 nM
//
Compound: Nc1cc(C2CCNCC3(CC3)COc3cccc(c3)Cn3cc2cn3)c2nn[nH]c2n1 (single isomer, unassigned) [Example 20]
IC50: 101 to 999 nM

# input for lookup
Problem: Entry Nc1cc(C2CCNCC3(CCCC3)COc3cccc(c3)Cn3cc2cn3)c2nn[nH]c2n1 (stereo not shown) [Example 22] : reported IC50 = ?
Result: 1 to 100 nM

====

biological target: UniProt P05164; assay: MPO Peroxidation Assay (Amplex Red Assay); type: biochemical; conditions: MPO peroxidation activity, 100 mM KPi (pH 7.4), ten minute preincubation; potency ranges defined in nM
IC50: recorded values

Answered cases to consult:
Compound: Nc1cc(C2CCNCc3cc(Cl)cc(c3)OCc3cccc(c3)Cn3cc2cn3)c2nn[nH]c2n1 (stereo not shown)
Measure: IC50
Meas value: 101 to 999 nM
--
Compound: Nc1cc(C2CCN3C[C@H](COc4cccc(c4)Cn4cc2cn4)[C@@H](c2ccccc2)C3)c2nn[nH]c2n1 (stereo partly shown)
Measure: IC50
Meas value: 1000 to 10000 nM
--
Compound: COCCN1CCc2cccc(c2)Oc2cccc(c2)Cn2cc(cn2)C(c2cc(N)nc3[nH]nnc23)CC1 (stereo not shown)
Measure: IC50
Meas value: 1000 to 10000 nM
--
Compound: COc1ccc2cc1OCc1cccc(c1)Cn1cc(cn1)C(c1cc(N)nc3[nH]nnc13)CCNC2 (stereo not shown)
Measure: IC50
Meas value: 1000 to 10000 nM
--
Compound: Nc1cc(C2CCNCC3(CC3)COc3cccc(c3)Cn3cc2cn3)c2nn[nH]c2n1 (single isomer, unassigned) [Example 20]
Measure: IC50
Meas value: 101 to 999 nM

Problem: Entry Nc1cc(C2CCNCCCOc3cccc(c3)Cn3cc2cn3)c2nn[nH]c2n1 (stereo not shown) : reported IC50 = ?
Result: 1000 to 10000 nM

Problem: Entry Nc1cc(C2CCNCCc3cccc(c3)Oc3cccc(c3)Cn3cc2cn3)c2nn[nH]c2n1 (stereo not shown) [Example 3] : reported IC50 = ?
Result: 1 to 100 nM
